Provenance of the data: patent US7183260B2

biological target: UniProt:P42574; test: Dissociation constant Ki and irreversible rate constant k3 for irreversible inhibitors (CPP32); type: biochemical; details: continuous assay 60 min, reaction initiated by adding enzyme to substrate-inhibitor mixture
pKi: −log10 of the molar value.
Use 1 when the recorded pKi is no lower than 7; use -1 when it is lower.

Check this molecule for pKi at or above 7: COc1ccccc1NC(=O)C(=O)N[C@H](C(=O)N[C@@H](CC(=O)O)C(=O)COc1c(F)c(F)cc(F)c1F)C(C)C [Example 95]
-1

Test whether the molecule CC(C)[C@H](NC(=O)C(=O)Nc1cccc2ccccc12)C(=O)N[C@@H](CC(=O)O)C(=O)COP(=O)(c1ccccc1)c1ccccc1 [Example 11] records pKi of 7 or higher.
1

Please tell me: is the molecule CC(C)[C@H](NC(=O)C(=O)Nc1ccccc1C(C)(C)C)C(=O)N[C@@H](CC(=O)O)C(=O)COc1c(F)c(F)cc(F)c1F [Example 93] at or over 7 in terms of pKi?
-1

Could you please find out whether CC(C)[C@H](NC(=O)C(=O)Nc1ccccc1-c1ccccc1)C(=O)N[C@@H](CC(=O)O)C(=O)COc1c(F)c(F)cc(F)c1F [Example 83] has pKi that meets 7 or exceeds it?
-1

Quick check: does CC(C)[C@H](NC(=O)C(=O)Nc1ccccc1C(F)(F)F)C(=O)N[C@@H](CC(=O)O)C(=O)COc1c(F)c(F)cc(F)c1F [Example 92] have pKi greater than or equal to 7?
-1

###

molecular target: MCH-2 (Homo sapiens, UniProt P55212); test: Dissociation constant Ki and irreversible rate constant k3 for irreversible inhibitors (Mch2); format: biochemical; details: continuous assay 60 min, reaction initiated by adding enzyme to substrate-inhibitor mixture
Sequence (P55212 24-179 limits assumed): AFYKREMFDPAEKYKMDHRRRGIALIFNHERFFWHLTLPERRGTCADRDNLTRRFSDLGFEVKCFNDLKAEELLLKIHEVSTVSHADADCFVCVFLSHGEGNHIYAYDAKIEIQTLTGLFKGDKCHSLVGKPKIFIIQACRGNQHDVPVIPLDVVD
Sequence (P55212 194-293 limits assumed): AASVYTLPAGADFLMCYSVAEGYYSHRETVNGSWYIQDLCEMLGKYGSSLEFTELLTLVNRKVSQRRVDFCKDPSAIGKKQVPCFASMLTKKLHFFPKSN
Would you kindly list MCH-2 k3/Ki for each of these molecules?

Entry under test: C[C@H](NC(=O)C(=O)Nc1ccccc1C(C)(C)C)C(=O)N[C@@H](CC(=O)O)C(=O)COP(=O)(c1ccccc1)c1ccccc1 [Example 32] . Its MCH-2 k3/Ki was 275,000 moles^−1 seconds^−1

MCH-2 k3/Ki for CC(C)[C@H](NC(=O)C(=O)Nc1c(F)cccc1F)C(=O)N[C@@H](CC(=O)O)C(=O)COc1c(F)c(F)cc(F)c1F is 1,083,000 moles^−1 seconds^−1

// recorded MCH-2 k3/Ki for CC(C)[C@H](NC(=O)C(=O)Nc1ccncc1)C(=O)N[C@@H](CC(=O)O)C(=O)COc1c(F)c(F)cc(F)c1F : 5,580 moles^−1 seconds^−1

In plain terms, C[C@H](NC(=O)C(=O)Nc1ccccc1Cl)C(=O)N[C@@H](CC(=O)O)C(=O)COC(=O)c1c(Cl)cccc1Cl [Example 58] has a documented MCH-2 k3/Ki of 281,000 moles^−1 seconds^−1

The molecule listed as CC(C)[C@H](NC(=O)C(=O)Nc1nc2ccccc2[nH]1)C(=O)N[C@@H](CC(=O)O)C(=O)COc1c(F)c(F)cc(F)c1F shows MCH-2 k3/Ki equal to 1,840 moles^−1 seconds^−1

response.value for CC(C)[C@H](NC(=O)C(=O)NC12CC3CC(CC(C3)C1)C2)C(=O)N[C@@H](CC(=O)O)C(=O)COc1c(F)c(F)cc(F)c1F (field: MCH-2 k3/Ki) = 10,700 moles^−1 seconds^−1

###

Assign log10 of Ki to each entry below.
biological target: MCH-5 (Homo sapiens, UniProt Q14790); test: Dissociation constant Ki and irreversible rate constant k3 for irreversible inhibitors (Mch5); type: biochemical; conditions: continuous assay 60 min, reaction initiated by adding enzyme to substrate-inhibitor mixture
Sequence (Q14790 217-374 limits assumed, species assumed): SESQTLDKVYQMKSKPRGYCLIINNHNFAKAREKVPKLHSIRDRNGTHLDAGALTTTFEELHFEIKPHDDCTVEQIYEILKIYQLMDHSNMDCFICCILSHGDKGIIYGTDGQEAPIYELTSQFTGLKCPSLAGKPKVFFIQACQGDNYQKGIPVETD
Sequence (Q14790 385-479 limits assumed, species assumed): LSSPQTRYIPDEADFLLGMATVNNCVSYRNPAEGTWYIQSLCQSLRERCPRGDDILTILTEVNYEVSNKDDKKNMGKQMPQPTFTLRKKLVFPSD
Heads up: the numbers are on a log10 scale; they represent Ki in nM.

Note to self: log10 of Ki recorded for C[C@H](NC(=O)C(=O)Nc1cccc2c1CCCC2)C(=O)N[C@@H](CC(=O)O)C(=O)COP(=O)(c1ccccc1)c1ccccc1 [Example 61] was 1.58

The compound identified as C[C@H](NC(=O)C(=O)Nc1cccc2c1CCCC2)C(=O)N[C@@H](CC(=O)O)C(=O)COP(=O)(c1ccccc1)c1ccccc1 [Example 48] registered its log10 of Ki at 0.61

For this compound ( CC(C)[C@H](NC(=O)C(=O)Nc1cccc2ccccc12)C(=O)N[C@@H](CC(=O)O)C(=O)COc1ccnc(C(F)(F)F)n1 ), measured log10 of Ki is 1.08

The reported value for CC(C)[C@H](NC(=O)C(=O)Nc1cccc2ccccc12)C(=O)N[C@@H](CC(=O)O)C(=O)COc1c(F)c(F)cc(F)c1F in terms of log10 of Ki is 0.57

The recorded log10 of Ki for entry CC(C)[C@H](NC(=O)C(=O)Nc1ccccn1)C(=O)N[C@@H](CC(=O)O)C(=O)COc1c(F)c(F)cc(F)c1F equals 2.20

Lab note: C[C@H](NC(=O)C(=O)Nc1ccccc1-c1ccccc1)C(=O)N[C@@H](CC(=O)O)C(=O)COP(=O)(c1ccccc1)c1ccccc1 gave log10 of Ki of 1.38

###

molecular target: CPP32 (Homo sapiens, UniProt P42574); test: Dissociation constant Ki and irreversible rate constant k3 for irreversible inhibitors (CPP32); assay type: biochemical; details: continuous assay 60 min, reaction initiated by adding enzyme to substrate-inhibitor mixture
Sequence (P42574 29-175 limits assumed, species assumed): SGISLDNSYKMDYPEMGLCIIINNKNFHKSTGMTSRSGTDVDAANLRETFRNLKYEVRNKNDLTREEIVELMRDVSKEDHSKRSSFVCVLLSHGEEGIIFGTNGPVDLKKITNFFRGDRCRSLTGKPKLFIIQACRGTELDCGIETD
Sequence (P42574 176-277 limits assumed, species assumed): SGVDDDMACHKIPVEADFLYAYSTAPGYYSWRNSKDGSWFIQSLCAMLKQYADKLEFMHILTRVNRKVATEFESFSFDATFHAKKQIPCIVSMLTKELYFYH
assay.metric: CPP32 k3/Ki

Hey, CPP32 (Homo sapiens, UniProt P42574) data for CC(C)[C@H](NC(=O)C(=O)NCCc1ccccc1)C(=O)N[C@@H](CC(=O)O)C(=O)COc1c(F)c(F)cc(F)c1F : CPP32 k3/Ki came out at 13,400 moles^−1 seconds^−1

Form: item CC(C)[C@H](NC(=O)C(=O)Nc1ccccc1-c1ccccc1)C(=O)N[C@@H](CC(=O)O)C(=O)COc1c(F)c(F)cc(F)c1F ; test system CPP32 (Homo sapiens, UniProt P42574); CPP32 k3/Ki: 25,400 moles^−1 seconds^−1

Query CC(C)[C@H](NC(=O)C(=O)Nc1cccc2ccccc12)C(=O)N[C@@H](CC(=O)O)C(=O)COc1ccc(O)cc1 on CPP32 (Homo sapiens, UniProt P42574); CPP32 k3/Ki returned: 286,000 moles^−1 seconds^−1

The molecule CC(C)[C@H](NC(=O)C(=O)Nc1cccc2ccccc12)C(=O)NC(CC(=O)O)C(=O)CF (mixture of isomers) , tested on CPP32 (Homo sapiens, UniProt P42574), showed CPP32 k3/Ki of 413,000 moles^−1 seconds^−1

###

target: MCH-5 (Homo sapiens); assay: Dissociation constant Ki and irreversible rate constant k3 for irreversible inhibitors (Mch5); assay type: biochemical; settings: continuous assay 60 min, reaction initiated by adding enzyme to substrate-inhibitor mixture
Assign MCH-5 k3/Ki to each entry below.

// MCH-5 k3/Ki value for CC(C)[C@H](NC(=O)C(=O)Nc1c(F)cccc1F)C(=O)N[C@@H](CC(=O)O)C(=O)COc1c(F)c(F)cc(F)c1F : 1,830,000 moles^−1 seconds^−1

Input C[C@H](NC(=O)C(=O)NC1CCCCC1)C(=O)N[C@@H](CC(=O)O)C(=O)COC(=O)c1c(Cl)cccc1Cl . Output MCH-5 k3/Ki: 2,140,000 moles^−1 seconds^−1

Documented MCH-5 k3/Ki of CC(C)[C@H](NC(=O)C(=O)NCc1ccccc1)C(=O)N[C@@H](CC(=O)O)C(=O)COc1c(F)c(F)cc(F)c1F : 472,000 moles^−1 seconds^−1

###

biological target: UniProt:P29452; assay: Dissociation constant Ki and irreversible rate constant k3 for irreversible inhibitors (ICE); type: biochemical
Sequence (P29452 123-296 limits assumed): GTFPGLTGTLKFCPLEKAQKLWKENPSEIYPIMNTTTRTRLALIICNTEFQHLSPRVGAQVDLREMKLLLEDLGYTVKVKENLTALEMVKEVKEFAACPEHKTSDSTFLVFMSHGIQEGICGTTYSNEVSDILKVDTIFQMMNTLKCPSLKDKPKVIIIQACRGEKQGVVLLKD
Sequence (P29452 315-402 limits assumed): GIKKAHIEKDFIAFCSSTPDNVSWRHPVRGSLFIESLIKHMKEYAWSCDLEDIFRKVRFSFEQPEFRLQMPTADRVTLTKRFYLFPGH
assay.metric: Ki (µM)
The reply should contain only the number, in µM.

Reported UniProt:P29452 Ki for item C[C@H](NC(=O)C(=O)NC12CC3CC(CC(C3)C1)C2)C(=O)N[C@@H](CC(=O)O)C(=O)COC(=O)c1c(Cl)cccc1Cl [Example 54] was 0.348

Field Ki (UniProt:P29452), entry C[C@H](NC(=O)C(=O)NC12CC3CC(CC(C3)C1)C2)C(=O)N[C@@H](CC(=O)O)C(=O)COP(=O)(c1ccccc1)c1ccccc1 [Example 53] : 0.462

###

target: UniProt Q14790; assay: Dissociation constant Ki and irreversible rate constant k3 for irreversible inhibitors (Mch5); assay type: biochemical; details: continuous assay 60 min, reaction initiated by adding enzyme to substrate-inhibitor mixture
Where a SMILES comes first, the peptide text is derived from it. The star is where a group is joined. Cbz = O=C(OCc1ccccc1)*; CH2F = FC*
assay.metric: Ki (nM)
Write the number in nM without appending the unit.

Tested system UniProt Q14790; Ki recorded for CC(NC(=O)C(NC(=O)OCc1ccccc1)C(C)C)C(=O)NC(CC(=O)O)C(=O)CF (stereo not drawn) [refer., Cbz-ValAlaAsp-CH2F, reference compound] (Cbz-Val-Ala-Asp-CH2F; configuration not given here) was 18

Record C[C@H](NC(=O)C(=O)Nc1cc(C(F)(F)F)ccc1N1CCOCC1)C(=O)N[C@@H](CC(=O)O)C(=O)COP(=O)(c1ccccc1)c1ccccc1 ; system UniProt Q14790; Ki = 8

Hey, UniProt Q14790 data for C[C@H](NC(=O)C(=O)Nc1ccccc1Cl)C(=O)N[C@@H](CC(=O)O)C(=O)COC(=O)c1c(Cl)cccc1Cl [Example 42] : Ki came out at 4.6

Entry C[C@H](NC(=O)C(=O)Nc1ccccc1Cl)C(=O)N[C@@H](CC(=O)O)C(=O)COP(=O)(c1ccccc1)c1ccccc1 [Example 41] under UniProt Q14790 had Ki of 27

Tested system UniProt Q14790; Ki recorded for C[C@H](NC(=O)C(=O)Nc1ccccc1Cl)C(=O)N[C@@H](CC(=O)O)C(=O)COP(=O)(c1ccccc1)c1ccccc1 [Example 57] was 2.1

Considering CC(C)[C@H](NC(=O)C(=O)Nc1cccc2ccccc12)C(=O)N[C@@H](CC(=O)O)C(=O)COP(C)(=O)c1ccccc1 (stereo partly drawn) , its Ki with UniProt Q14790 was recorded as 5.4
